testedSystem: fusion protein PRR
Sequence (chain, as listed by the source): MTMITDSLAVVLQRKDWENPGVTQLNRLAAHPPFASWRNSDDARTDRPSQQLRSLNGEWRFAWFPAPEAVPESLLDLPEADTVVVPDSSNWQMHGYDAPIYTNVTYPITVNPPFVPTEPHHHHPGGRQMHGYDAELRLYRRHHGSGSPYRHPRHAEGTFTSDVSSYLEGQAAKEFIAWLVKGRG
readoutType: relative cleavage efficiency (%)
Response body: numeric value in %, unit text excluded.

// query relative cleavage efficiency value for entry OmpT protease (wild-type, E. coli mature OmpT protease) (protein) STETLSFTPDNINADISLGTLSGKTKERVYLAEEGGRKVSQLDWKFNNAAIIKGAINWDLMPQISIGAAGWTTLGSRGGNMVDQDWMDSSNPGTWTDESRHPDTQLNYANEFDLNIKGWLLNEPNYRLGLMAGYQESRYSFTARGGSYIYSSEEGFRDDIGSFPNGERAIGYKQRFKMPYIGLTGSYRYEDFELGGTFKYSGWVESSDNDEHYDPGKRITYRSKVKDQNYYSVAVNAGYYVTPNAKVYVEGAWNRVTNKKGNTSLYDHNNNTSDYSKNGAGIENYNFITTAGLKYTF
100
